# System: ACVRL1
# test-settings: concentration: 1 μM, replicates: in singlicate; n = 1;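 note: KINOMEscan kinase panel screen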
I'd appreciate it if you could supply %Inh values for the items below.
Answers are plain numbers, in %.

Completed entries (count: 5):
Cc1ccccc1COc1cc(-n2cnc3cc(Cl)ccc32)sc1C(N)=O | 3
FC(F)(F)c1ccc(-c2ncn(CCCN3CCOCC3)c2-c2ccncc2)cc1 | 4
COc1cccc(C2=C(N(C)c3ccccc3)C(=O)NC2=O)c1 | 0
COc1ccc(-c2cc3c(C)nc(N)nc3n([C@H]3CC[C@H](O)CC3)c2=O)cn1 | 0
O=c1cc(N2CCOCC2)nc2n(Cc3ccc(F)c(Cl)c3)ccn12 | 0

Hey, quick one: what's %Inh for each of these?
1. CCC(=O)c1c(-c2ccccc2)c2cc(Cl)ccc2c(=O)n1Cc1cc(S(C)(=O)=O)n(CC(N)=O)n1
2. CN1C(=O)C(Nc2ccccc2)=C(c2ccccc2)C1=O
3. COc1cc(Nc2nccc(N3CCC(NC(=O)C4COc5ccccc5O4)C3)n2)cc(OC)c1OC (stereo not shown)
4. CCn1c(-c2nonc2N)nc2ccccc21

1. 0
2. 0
3. 0
4. 0

Hey, quick one: what's %Inh for each of these?
1. Cc1cccc(-c2cc(-c3c[nH]nc3-c3ccccn3)ccn2)c1
2. Cc1cc(Nc2nc(-c3cccc(C)n3)nc3ccccc23)ccn1

1. 0
2. 0

Hey, quick one: what's %Inh for each of these?
1. Cc1nnc(-c2ccc(C)c(-c3ccc(C(=O)O)cc3)c2)o1
2. O=C(NCCNc1ccnc(Nc2ccc(F)cc2)n1)Nc1ccc2c(c1)OCO2

1. 0
2. 0

Hey, quick one: what's %Inh for each of these?
1. COc1cccc(-n2cnc3c(N)ncnc32)c1
2. O=C1NC(=O)C(c2ccccc2)=C1Nc1cccc(O)c1

1: 11; 2: 0

* * *

# Tested on: ROCK1
# test-settings: concentration: 1 μM, replicates: in singlicate; n = 1
quantity-name: %Inh (%)
Answers are plain numbers, in %.

Cc1nnc(-c2ccc3ncn(-c4ccc(S(C)=O)cc4)c3c2)o1 (stereo not drawn) | 0
COc1cc(Nc2nccc(N3CCC(NC(=O)C4COc5ccccc5O4)C3)n2)cc(OC)c1OC (stereo not drawn) [GSK1379761] | 26
COc1cc2ncn(-c3cc(OCc4ccc(S(C)(=O)=O)cc4)c(C(N)=O)s3)c2cc1OC [GW869979] | 45
COc1ccc(-c2coc3ccc(-c4nnc(SCc5cccc(C#N)c5)o4)cc23)cc1 | 0
CCC(=O)c1c(-c2ccccc2)c2cc(Cl)ccc2c(=O)n1Cc1cc(S(C)(=O)=O)n(CC(F)F)n1 | 0

Hey, quick one: what's %Inh for each of these?
1. Nc1nc(-c2ccccc2F)c(-c2ccnc3ccccc23)s1 [GW560459]
2. COc1cc(Nc2ccnc3ccc(C(F)(F)F)cc23)cc(OC)c1OC [GW577382]
3. COc1cc2ncn(-c3cc(OCc4ccncc4)c(C(N)=O)s3)c2cc1OC [GSK336313]

[14, 0, 0]

Fill in: %Inh of COc1cccc(-n2cnc3c(N)ncnc32)c1 [SKF-97416] is ___
66

* * *

# Test system: BUB1
# test-settings: concentration: 1 μM, replicates: in singlicate; n = 1
I'd appreciate it if you could supply %Inh values for the items below.

Cc1ccccc1COc1cc(-n2cnc3cc(Cl)ccc32)sc1C(N)=O [GW813349] | 0%

Hey, quick one: what's %Inh for each of these?
1. CN1C(=O)C(Nc2ccccc2)=C(c2ccccc2)C1=O [SB-300079]
2. Cc1cc(Nc2nc(-c3cccc(C)n3)nc3ccccc23)ccn1 [GW872411]
3. O=c1cc(N2CCOCC2)nc2n(Cc3ccc(F)c(Cl)c3)ccn12 [GSK2297099]
4. CCS(=O)c1ccc(-c2coc3ccc(-c4nnc(C)o4)cc23)cc1 (centres unmarked)
5. Nc1n[nH]c2nnc(-c3ccccc3)c(-c3ccccc3)c12 [GW554060]

32%
0%
0%
0%
60%

Hey, quick one: what's %Inh for each of these?
1. Cc1cccc(-c2nc(Nc3ccc4c(cnn4C)c3)c3ccccc3n2)n1 [GW876731]
2. Cc1nnc(-c2ccc(C)c(-c3ccc(C(=O)O)cc3)c2)o1 [GW608005]

1. 34%
2. 17%

These entries and their values trace back to paper PMC5540273.
